TEST SYSTEM: hCE2 (Homo sapiens, UniProt O00748)
Construct: tissue Celsis (Shanghai, China); host or cells: human liver microsomes (HLM)
TEST NAME: hCE2 inhibition assay, DDAB hydrolysis in human liver microsomes
Type: biochemical
EXPERIMENTAL CONDITIONS: DDAB as probe substrate, HLM; averages of at least three experiments; read-out: IC50 (hCE2)
MEASUREMENT NAME: IC50 (µM)

MOLECULE: COC(=O)C12CCC(C)C(C)C1C1=CCC3C4(C)CCC(=O)C(C)(C)C4CCC3(C)C1(C)CC2 (stereo not shown)
BOUND TYPE: >
TEST RESULT: 100
//
MOLECULE: COC(=O)C12CCC(C)C(C)C1C1=CC(=O)C3C4(C)CCC(=O)C(C)(C)C4CCC3(C)C1(C)CC2 (stereo not shown)
BOUND TYPE: =
TEST RESULT: 11.9
//
MOLECULE: CC1CCC2(C(=O)O)CCC3(C)C(=CCC4C5(C)CCC(OC(=O)CCC(=O)O)C(C)(C)C5CCC43C)C2C1C (stereo not shown)
BOUND TYPE: =
TEST RESULT: 83
//
MOLECULE: C=C(CCC(C(=O)O)C1C(O)CC2(C)C3=CCC4C(C)(C)C(=O)CCC4(C)C3=CCC12C)C(C)C (stereo not shown)
BOUND TYPE: >
TEST RESULT: 100

###

TEST SYSTEM: hCE1 (Homo sapiens)
TEST NAME: Inhibition of DME hydrolysis by recombinant hCE1
Type: biochemical
pIC50: −log10 of the molar value.
MEASUREMENT NAME: pIC50

COMPOUND: CC1CCC2(C(=O)O)CCC3(C)C(=CCC4C5(C)CCC(OC(=O)CCC(=O)O)C(C)(C)C5CCC43C)C2C1C (stereo not shown)
MEASUREMENT NAME: pIC50
TEST RESULT: 8.04

###

TEST SYSTEM: hCE1 (Homo sapiens)
TEST NAME: hCE1 inhibition assay, DME hydrolysis in human liver microsomes
Format: biochemical
Set-up: tissue Celsis (Shanghai, China); host or cells: human liver microsomes (HLM)
EXPERIMENTAL CONDITIONS: DME as probe substrate, HLM; averages of at least three experiments; read-out: IC50 (hCE1)
The compounds listed here are annotated with their IC50.
MEASUREMENT NAME: IC50 (µM)

COMPOUND: CC1(C)[C@@H](O)CC[C@]2(C)[C@H]3C(=O)C=C4[C@@H]5C[C@@](C)(C(=O)O)CC[C@]5(C)CC[C@@]4(C)[C@]3(C)CC[C@@H]12
BOUND TYPE: =
TEST RESULT: 13

COMPOUND: C[C@H](CC(=O)C[C@@H](C)[C@H]1CC(=O)[C@@]2(C)C3=C(C(=O)C[C@]12C)[C@@]1(C)CC[C@H](O)C(C)(C)[C@@H]1C[C@@H]3O)C(=O)O
BOUND TYPE: >
TEST RESULT: 400

COMPOUND: CC1(C)CCC2(C(=O)O)C(O)CC3(C)C(=CCC4C5(C)CC(O)C(O)C(C)(CO)C5CCC43C)C2C1 (stereo not drawn)
BOUND TYPE: =
TEST RESULT: 64.7

###

TEST SYSTEM: hCE1 (Homo sapiens)
TEST NAME: Inhibition of hCE1-mediated BMBT hydrolysis in HLMs
Type: biochemical
Design: tissue Celsis (Shanghai, China); host or cells: human liver microsomes (HLM)
Procedure: The half maximal inhibitory concentration (IC50) of each compound was determined using various inhibitor concentrations under the same incubation conditions as mentioned above. The inhibition constant (Ki) values of compound 22 against hCE1 in HLM were determined using varied concentrations of DME in the presence or absence of each inhibitor. […] The inhibition kinetic type was evaluated by determining the intersection point in the Dixon and Lineweaver-Burk plots. […]

COMPOUND: CC1CCC2(C(=O)O)CCC3(C)C(=CCC4C5(C)CCC(OC(=O)CCC(=O)O)C(C)(C)C5CCC43C)C2C1C (stereo not shown)
Ki [nM]: 35.5

###

TEST SYSTEM: hCE1 (Homo sapiens, UniProt P23141)
Sequence (P23141 18-567): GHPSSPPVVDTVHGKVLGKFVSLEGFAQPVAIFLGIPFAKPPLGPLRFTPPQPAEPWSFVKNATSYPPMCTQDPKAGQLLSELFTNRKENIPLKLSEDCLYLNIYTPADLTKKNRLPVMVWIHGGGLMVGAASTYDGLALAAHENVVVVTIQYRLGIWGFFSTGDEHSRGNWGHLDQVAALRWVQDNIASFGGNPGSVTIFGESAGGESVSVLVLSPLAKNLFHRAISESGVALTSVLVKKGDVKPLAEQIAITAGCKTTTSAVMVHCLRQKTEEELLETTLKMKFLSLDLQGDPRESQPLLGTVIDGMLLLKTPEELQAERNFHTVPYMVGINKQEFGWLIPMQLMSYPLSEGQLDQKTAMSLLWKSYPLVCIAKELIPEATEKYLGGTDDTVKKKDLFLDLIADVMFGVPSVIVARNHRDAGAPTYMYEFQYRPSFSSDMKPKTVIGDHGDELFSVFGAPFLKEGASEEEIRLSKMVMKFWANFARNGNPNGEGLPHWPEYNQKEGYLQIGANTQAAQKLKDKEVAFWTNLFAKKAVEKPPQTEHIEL
TEST NAME: hCE1 inhibition assay, DME hydrolysis in human liver microsomes;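 note: carboxylesterase inhibition read out as probe hydrolysis, with DME serving as hCE1 substrate and DDAB as hCE2 substrate, in DMSO below 2% (V/V)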
Format: biochemical
Parameters: tissue Celsis (Shanghai, China); host or cells: human liver microsomes (HLM)
MEASUREMENT NAME: IC50

MOL: C[C@H](CC(=O)C[C@@H](C)[C@H]1C[C@H](O)[C@@]2(C)C3=C(C(=O)C[C@]12C)[C@@]1(C)CCC(=O)C(C)(C)[C@@H]1C[C@@H]3O)C(=O)O
TEST RESULT: > 400 µM

###

TEST SYSTEM: hCE2 (Homo sapiens, UniProt O00748)
Construct: tissue Celsis (Shanghai, China); host or cells: human liver microsomes (HLM)
Sequence (O00748 27-559): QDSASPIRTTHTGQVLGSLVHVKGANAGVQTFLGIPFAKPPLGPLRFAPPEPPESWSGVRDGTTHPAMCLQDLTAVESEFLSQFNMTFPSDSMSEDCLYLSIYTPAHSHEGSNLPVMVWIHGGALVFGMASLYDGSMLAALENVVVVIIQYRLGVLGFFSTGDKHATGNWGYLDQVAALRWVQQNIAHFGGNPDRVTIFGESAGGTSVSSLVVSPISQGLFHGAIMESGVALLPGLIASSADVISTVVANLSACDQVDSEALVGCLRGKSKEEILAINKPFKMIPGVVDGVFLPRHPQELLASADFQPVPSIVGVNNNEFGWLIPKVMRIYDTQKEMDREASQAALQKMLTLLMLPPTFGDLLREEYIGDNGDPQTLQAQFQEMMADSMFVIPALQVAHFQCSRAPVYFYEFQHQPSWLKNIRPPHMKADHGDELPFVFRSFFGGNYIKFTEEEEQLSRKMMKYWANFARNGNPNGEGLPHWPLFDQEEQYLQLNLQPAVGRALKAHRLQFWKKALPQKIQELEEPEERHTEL
TEST NAME: hCE2 inhibition assay, DDAB hydrolysis in human liver microsomes
Assay type: biochemical
EXPERIMENTAL CONDITIONS: DDAB as probe substrate, HLM; averages of at least three experiments; read-out: IC50 (hCE2)
pIC50: −log10 of the molar value.

COMPOUND: COC(=O)C12CCC(C)C(C)C1C1=CCC3C4(C)CCC(O)C(C)(C)C4CCC3(C)C1(C)CC2 (stereo not drawn)
BOUND TYPE: =
pIC50: 4.92
--
COMPOUND: CC1(C)CCC2(CO)CCC3(C)C(=CCC4C5(C)CCC(O)C(C)(C)C5CCC43C)C2C1 (stereo not drawn)
BOUND TYPE: =
pIC50: 5.21
--
COMPOUND: COC(=O)C12CCC(C)(C)CC1C1=CCC3C4(C)CCC(O)C(C)(C)C4CCC3(C)C1(C)CC2 (stereo not drawn)
BOUND TYPE: =
pIC50: 5.24
--
COMPOUND: CC1(C(=O)O)CCC2(C)CCC3(C)C(=CCC4C5(C)CCC(OC(=O)CCC(=O)O)C(C)(C)C5CCC43C)C2C1 (stereo not drawn)
BOUND TYPE: =
pIC50: 5.50
--
COMPOUND: CC1(C)CCC2(C(=O)O)C(O)CC3(C)C(=CCC4C5(C)CC(O)C(O)C(C)(CO)C5CCC43C)C2C1 (stereo not drawn)
BOUND TYPE: <
pIC50: 4.00
--
COMPOUND: CC1(C)CCC2(C(N)=O)CCC3(C)C(=CCC4C5(C)CCC(O)C(C)(C)C5CCC43C)C2C1 (stereo not drawn) [Compound 18, 3β-hydroxy-olean-12-en-28-amide]
BOUND TYPE: =
pIC50: 5.39

###

TEST SYSTEM: hCE2 (Homo sapiens, UniProt O00748)
Construct: tissue Celsis (Shanghai, China); host or cells: human liver microsomes (HLM)
TEST NAME: hCE2 inhibition assay, DDAB hydrolysis in human liver microsomes
Type: biochemical
EXPERIMENTAL CONDITIONS: DDAB as probe substrate, HLM; averages of at least three experiments; read-out: IC50 (hCE2)
Listed here are compounds together with their documented IC50.
MEASUREMENT NAME: IC50 (µM)

COMPOUND: CC1(C)CCC2(C(=O)O)CCC3(C)C(=CCC4C5(C)CCC(=O)C(C)(C)C5CCC43C)C2C1 (stereo not drawn)
MEASUREMENT NAME: IC50
BOUND TYPE: =
TEST RESULT: 16.1
//
COMPOUND: CC1CCC2(C(=O)O)CCC3(C)C(=CCC4C5(C)CCC(=O)C(C)(C)C5CCC43C)C2C1C (stereo not drawn)
MEASUREMENT NAME: IC50
BOUND TYPE: =
TEST RESULT: 9.56
//
COMPOUND: CC1(C)CCC2(C(=O)O)CCC3(C)C(=CCC4C5(C)CCC(OC(=O)CCC(=O)O)C(C)(C)C5CCC43C)C2C1 (stereo not drawn)
MEASUREMENT NAME: IC50
BOUND TYPE: =
TEST RESULT: 56
//
COMPOUND: C[C@H](CC(=O)C[C@@H](C)[C@H]1CC(=O)[C@@]2(C)C3=C(C(=O)C[C@]12C)[C@@]1(C)CC[C@H](O)C(C)(C)[C@@H]1C[C@@H]3O)C(=O)O
MEASUREMENT NAME: IC50
BOUND TYPE: >
TEST RESULT: 100
//
COMPOUND: CC(=O)OC1CCC2(C)C(CCC3(C)C2CC=C2C4CC(C)(C)CCC4(C(=O)O)CCC23C)C1(C)C (stereo not drawn)
MEASUREMENT NAME: IC50
BOUND TYPE: =
TEST RESULT: 10.2
//
COMPOUND: C=C(CCC(C(=O)O)C1C(O)CC2(C)C3=CCC4C(C)(CCC(OC(C)=O)C4(C)C)C3=CCC12C)C(C)C (stereo not drawn)
MEASUREMENT NAME: IC50
BOUND TYPE: >
TEST RESULT: 100
